meta.source: PubChem BioAssay AID2685

# protocol_details: qHTS Assay for Lipid Storage Modulators in Drosophila S3 Cells
# condition_label: BODIPY lipid droplet fluorescence, 18-24 h, cells fed with added oleic acid; series mostly up to 46.1 µM
Out of some 320,000 compounds screened, about 2,100 (0.66%) were called active. About 53% were inconclusive and are not listed. Calls follow the shape of the dose curve; as a rule, active = well fitted inhibition curve with a large enough effect in the signal ratio, with a control signal flat (not every such curve was filed as active); inconclusive = small, poorly fitted or top-dose-only effect, or effect the other way, or a change in a side signal; inactive = flat fitted curve, though single readings scatter; the % refers to the signal ratio. Only a selection was taken, and actives are over-represented in it overall.
Classes used: active, inactive

| compound | classification |
| --- | --- |
| COc1ccccc1C1(CC(=O)Nc2nccs2)CCOC(C(C)C)C1 (stereo unspecified) | inactive |
| Cc1cc(-n2cnnn2)cc(C)c1S(=O)(=O)NCCOc1ccccc1 | inactive |
| O=C(O)CCCC(=O)N1CCOCCOCCOCCOCC1 | inactive |
| Cc1ccc(CNC(=O)COc2cccc3c2OC(C)(C)C3)cc1 | active |
| Clc1ccc(N2CCN(c3cnc4ccccc4n3)CC2)cc1 | inactive |
| CC1(C)Cc2cccc(OCC(=O)NCc3ccc(F)cc3)c2O1 | inactive |

###

# protocol_details: qHTS Assay for Lipid Storage Modulators in Drosophila S3 Cells
# condition_label: BODIPY lipid droplet fluorescence, 18-24 h, cells fed with added oleic acid; series mostly up to 46.1 µM
Among all 320,000 compounds or so, about 2,100 (0.66%) were called active. Not shown: some 53% with an inconclusive outcome. Calls follow the shape of the dose curve; as a rule, active = well fitted inhibition curve with a large enough effect in the signal ratio, with a control signal flat (not every such curve was filed as active); inconclusive = small, poorly fitted or top-dose-only effect, or effect the other way, or a change in a side signal; inactive = flat fitted curve, though single readings scatter; the % refers to the signal ratio. The sample as a whole holds a higher share of actives than the screen did.
Classes used: 1.0 (active), 0.0 (inactive)

| compound | classification |
| --- | --- |
| NC(=O)c1nsc(C(=O)N(CC(=O)NC2CCCC2)c2ccc(F)c(Cl)c2)c1N | 1.0 |
| CCOc1ccc(S(=O)(=O)N2CCC(C(=O)N3CCc4ccccc4C3)CC2)cc1 | 1.0 |
| CC(C)C(=O)Nc1ccccc1-c1nc2ccccc2[nH]c1=O | 0.0 |
| NC(=O)c1cc(-c2csc(-c3cccnc3)n2)ccc1O | 1.0 |
| COC(=O)COc1ccc(S(=O)(=O)N2CCc3ccccc3C2)cc1 | 1.0 |
| O=C(O)c1ccc(-c2nc(-c3ccc(Cl)c(Cl)c3)cs2)cc1 | 0.0 |
| Oc1ccc(-c2csc(-c3cccnc3)n2)cc1O | 0.0 |
| CCC(=O)Nc1ccccc1-c1nc2ccccc2[nH]c1=O | 0.0 |
| COc1ccc(CCNC(=O)CNC(=O)c2ccccc2Br)cc1OC | 0.0 |
| Cc1ccc(S(=O)(=O)N2CCCCC2CCNC(=O)C(=O)NC2CCCC2)cc1 (configuration not stated) | 1.0 |
| O=C(COc1ccc2c3c(c(=O)oc2c1)CCC3)N1CCN(c2ccccc2)CC1 | 0.0 |
| CCOc1ccc(S(=O)(=O)N2CCC(C(=O)N3CCN(c4ccccc4)CC3)CC2)cc1 | 0.0 |
| Cc1ccccc1S(=O)(=O)Cc1ccc(C(=O)NC2CCCCC2C)o1 (configuration not stated) | 0.0 |
| CCOc1ccc(S(=O)(=O)N2CCC(C(=O)N3CCN(Cc4ccccc4)CC3)CC2)cc1 | 0.0 |
| CS(=O)(=O)NN1C(=O)c2ccccc2NC1c1c[nH]c2ccccc12 (configuration not stated) | 0.0 |
| COc1ccccc1CNC(=O)C(=O)NCCC1CCCCN1S(=O)(=O)c1ccc(C)cc1 (configuration not stated) | 0.0 |
| CCOC(=O)N1CCC(NC(=O)c2ccc(CS(=O)(=O)c3ccccc3C)o2)CC1 | 0.0 |
| O=C(O)c1cc2nc3c(c(C(F)(F)F)n2n1)CCCC3 | 0.0 |
| NC(=O)c1nsc(C(=O)N(CC(=O)NC2CCCCC2)c2ccc(Cl)cc2)c1N | 1.0 |
| COC(=O)COc1ccc(S(=O)(=O)N2CCCCCC2)cc1 | 0.0 |
| COc1ccc(S(=O)(=O)N2CCc3ccccc3C2)cc1 | 0.0 |
| O=C(NCCC1CCCCN1S(=O)(=O)c1ccccc1)C(=O)NC1CCCC1 (configuration not stated) | 0.0 |

###

# protocol_details: qHTS Assay for Lipid Storage Modulators in Drosophila S3 Cells;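 as to cell number change: cells counted by Cell Tracker Red CMTPX staining in the red channel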
# condition_label: BODIPY lipid droplet fluorescence, 18-24 h, cells fed with added oleic acid; measured here: cell count max response
The campaign covered roughly 320,000 compounds. About 2,100 (0.66%) were called active. Roughly 53% stayed inconclusive and do not appear here. The list comes from a sample in which actives are over-represented; it also holds close analogues and randomly drawn compounds.

| compound | cell number change, % |
| --- | --- |
| CCOc1ccc2ccccc2c1C(=O)Nc1cc(=O)n(C)c(=O)n1C | -14 |
| Cc1ccc(NC(=O)c2cccc(N3C(=O)C4C5CCC(C5)C4C3=O)c2)c(C)c1 (stereo not drawn) | 26.1 |
| Cc1cc(C)c(OCC(=O)Nc2nc(-c3ccccn3)cs2)c(C)c1 | 1.77 |
| Cc1n[nH]c(C)c1C(=O)CC1(O)C(=O)N(CCc2ccccc2)c2ccc(Br)cc21 (stereo not drawn) | 12.8 |
| CCc1cc(C(=O)Nc2nc(-c3ccccn3)cs2)sc1C | 3.52 |
| CCCCC1C2C(=O)N(c3ccccc3)C(=O)C2ON1c1ccccc1 (stereo not drawn) | -1.39 |
| COc1ccc(CCN(/C=C2\Sc3ccccc3C2=O)C(C)=O)cc1OC | 23.5 |
| COc1ccc(NC(=O)c2cccc(N3C(=O)C4C5C=CC(C6CC56)C4C3=O)c2)cc1 (stereo not drawn) | 8.84 |
| CCNC(=O)n1nccc1C(C)Oc1ccccc1 (stereo not drawn) | 17.8 |
| CCCCC1C2C(=O)N(c3ccc(C)cc3)C(=O)C2ON1c1ccccc1 (stereo not drawn) | 7.09 |
| CCc1cc(C(=O)Nc2ncccc2O)sc1C | -6.68 |
| C/C(CC(=O)Nc1cccc(Cl)c1C)=N\NC(=O)Cc1csc(N)n1 | 22 |
| COC(=O)c1cc(OC)c(OC)c(OC)c1N | 7.54 |
| O=C1CN(c2nc(-c3cccs3)nc3sc4c(c23)CCCC4)CCN1 | -27.1 |
| COCCCNC(=O)/C=C1\Sc2ccccc2N(Cc2ccccc2F)C1=O | 12.6 |
| CSc1nc(=S)n(-c2ccccc2)c(C)c1C(C)=O | -14.2 |
| Cc1ccnc2nc(C(=O)Nc3nc(-c4ccccn4)cs3)nn12 | -16 |
| Cc1cc(C(F)(F)F)c2c(N)c(C(=O)NC3CC3)sc2n1 | -6.29 |
| Cc1nnc(NC(=O)c2sc3nc(-c4cccs4)cc(C(F)(F)F)c3c2N)s1 | 18.6 |
| CCCOc1ccc(N2C(=O)C3ON(c4ccccc4)C(CCC)C3C2=O)cc1 (stereo not drawn) | 10.7 |
| COc1ccccc1-n1c(-c2ccc(F)cc2)coc1=O | 9.35 |
| CC(=O)CCC(=O)NC1CCCc2c1cnn2-c1ccc(C(C)(C)C)cc1 (stereo not drawn) | -14.2 |
| CC1(C)CC(O)C(C)(C)N1O (stereo not drawn) | 0.759 |
| CCOC(=O)N1CCN(CC(O)COc2c(C)cc(C)cc2C)CC1 (stereo not drawn) | 5 |
| Cc1cc(NC(=O)C(C)SCC(=O)Nc2nc3c(F)cc(F)cc3s2)no1 (stereo not drawn) | -16.6 |
| COc1ccccc1N(/N=C1\Sc2ccccc2C1=O)C(C)=O | 3.61 |
| O=C(Nc1nc(-c2ccccn2)cs1)c1ccco1 | -10.5 |
| Cc1ccc(OCCOC(=O)c2cc(S(=O)(=O)N3CCCCC3)ccc2N2CCOCC2)cc1 | -27 |
| COC(=O)c1[nH]c(C)c(/C(O)=C2\C(=O)C(=O)N(CCN(C)C)C2c2cccc(OC)c2OC)c1C (stereo not drawn) | -3.7 |
| CC1CC(C)CN(C(=O)COC(=O)c2nn(C)c(=O)c3ccccc23)C1 (stereo not drawn) | 14.1 |
| COc1ccc(Cl)cc1NC(=O)COC(=O)CNC(=O)c1ccc([N+](=O)[O-])c(C)c1 | 7.48 |
| Cc1cc(C)c2c(N)c(C(=O)NC3CC3)sc2n1 | 14.6 |
| CC(C)(C)c1ccc(-n2ncc3c2CCCC3NC(=O)CCn2cncn2)cc1 (stereo not drawn) | -29.9 |
| CC(Oc1cc2oc(=O)c3c(c2cc1Cl)CCC3)C(=O)N1C[C@H]2C[C@@H](C1)c1cccc(=O)n1C2 (stereo partly drawn) | 18.9 |
| Cc1cccc(NC(=O)c2cccc(N3C(=O)C4C5C=CC(C6CC56)C4C3=O)c2)c1 (stereo not drawn) | -23.8 |
| CN(C)CCNC(=O)c1sc2nc(-c3ccccc3)cc(C(F)(F)F)c2c1N | -18.7 |
| COc1ccc(/C=N/n2cnc3c(sc(=S)n3-c3ccccc3)c2=O)cc1 | 19.1 |
| O=C(COc1cc2oc(=O)c3c(c2cc1Cl)CCCC3)N1C[C@H]2C[C@@H](C1)c1cccc(=O)n1C2 | 3.88 |
| Cc1ccc(-n2nc3c(=O)n(C(C)C(=O)NCCCc4ccccc4)nc(C)c3c2C)cc1 (stereo not drawn) | -8.4 |
| O=C(NNS(=O)(=O)c1ccccc1)c1cnn(-c2ccccc2)c1-n1cccc1 | 9.3 |
| Cc1ccc(-n2nc3c(=O)n(CC(=O)NCCCc4ccccc4)nc(C)c3c2C)cc1 | 21 |
| Cc1cc(C)c2c(N)c(C(=O)Nc3ccc(C)c(C)c3)sc2n1 | -1.35 |
| Cc1cccc(Nc2nc(N)nc(CN3CCN(c4ccc(F)cc4)CC3)n2)c1 | -18.7 |
